System: HCC 2998
Test: NCI tumour cell line growth inhibition, 48 h
The source made the active and inactive calls. Rule as the data show it: active = GI50 up to about 1.1 µM and inactive = higher.
Classes used: active, inactive

{"compound": "SC1=NC2=C(CSC/C2=C\\c2ccccc2)C(c2ccccc2)N1 (configuration not stated)", "group": "inactive"}
{"compound": "S=P1(c2ccccc2)Nc2ccc(Cl)cc2N1 (configuration not stated)", "group": "inactive"}
{"compound": "COc1cc2nc3n(c(=O)c2cc1OC)-c1ccc([N+](=O)[O-])cc1C3=O", "group": "inactive"}
{"compound": "Cc1cc(C)nc(NS(=O)(=O)c2ccc(Nc3nncc(=O)n3N)cc2)n1", "group": "inactive"}
{"compound": "COC(=O)c1ccc(Cl)cc1NC(=O)C1CCCCC1", "group": "inactive"}
{"compound": "COC(=O)C1C(O)C(C)C(=O)C(C)/C=C\\C=C(C)C(=O)Nc2c(C)c(OC(C)=O)c3c(c2O)C(=O)C(C)=C2OCOC(=C23)C(C)=CC(C)(O)C(O)C(C)C1O (configuration not stated)", "group": "inactive"}
{"compound": "O=C(/C=C/c1ccccc1O)c1ccccc1Cl", "group": "inactive"}
{"compound": "CCOc1ccccc1C=C1c2ccccc2C(=O)c2ccccc21", "group": "inactive"}
{"compound": "Cc1c(C(=O)O)n2cnnc2c2ccccc12", "group": "inactive"}
{"compound": "O=C1CCCC2=C1CC1=C(CCCC1=O)N2c1ccccc1", "group": "inactive"}
{"compound": "C=C1C(C)C2C(Cc3ccccc3)NC(=O)C23OC(=O)/C=C\\CC(=O)CCC(C)C/C=C/C3C1O (configuration not stated)", "group": "inactive"}
{"compound": "C=CCN(Cc1ccncc1)C(=O)C(O)(c1ccccc1)c1ccccc1", "group": "inactive"}
{"compound": "CCNC(=O)C(O)C1(O)CCC2[C@@H]3CCC4=CC(=O)C=C[C@]4(C)C3[C@@H](O)C[C@@]21C (some centres not stated)", "group": "inactive"}
{"compound": "O=C(Nc1cc([N+](=O)[O-])cc([N+](=O)[O-])c1)OC1C2CCC1C1OC1C2 (configuration not stated)", "group": "inactive"}
{"compound": "C/C(=N\\Nc1nc2ccccc2[nH]1)c1ncccn1", "group": "active"}
{"compound": "CCOC(=S)SSSC(=S)OCC", "group": "inactive"}
{"compound": "COc1cccc(NC(=O)CC(=O)N2N=C(N3c4ccccc4Sc4ccccc43)CC2c2ccccc2)c1 (configuration not stated)", "group": "inactive"}
{"compound": "CCN(CC)c1nc(N(C)C)c2cc(OC)ccc2n1", "group": "inactive"}
{"compound": "O=C(N/N=C\\c1ccc([N+](=O)[O-])cc1)Nc1ccc2ccccc2c1", "group": "inactive"}
{"compound": "Clc1ccc(OCc2nnc3n2N=C(c2ccc(Br)cc2)CS3)cc1", "group": "inactive"}
{"compound": "COc1ccc(OC)c(/N=C/c2cc(OC)c(OC)c(OC)c2)c1", "group": "inactive"}
{"compound": "S=C1Cc2c(-c3ccc(Cl)cc3)cc(-c3ccccc3)nc2-c2ccccc2N1", "group": "inactive"}
{"compound": "COc1ccc2c(c1O)-c1c(OC)c(OC)cc3c1[C@H](C2)[N+](C)(C)CC3", "group": "inactive"}
{"compound": "COc1ccc(NS(=O)(=O)c2ccc3ncn(NS(=O)(=O)c4ccc(I)cc4)c(=O)c3c2)cc1", "group": "inactive"}
{"compound": "CCCCN1C(=O)CC2[C@@H]3CCc4cc(OC(C)=O)ccc4C3CC[C@]2(C)C1=O (some centres not stated)", "group": "inactive"}
{"compound": "COc1ccc2c(c1)N=C1CSC(c3cccc(Br)c3)N1C2 (configuration not stated)", "group": "inactive"}
{"compound": "CC(C)(C)OC(=O)NCC(=O)NC1C/C(=N\\O)c2sccc21 (configuration not stated)", "group": "inactive"}
{"compound": "Cc1ccc(/N=N/c2c(O)c(C(=O)O)cc3ccccc23)cc1C", "group": "inactive"}
{"compound": "CC(=O)[O-].[O-]c1c(Cl)cc(Cl)cc1/C=N/Nc1ccccn1.[Zn+2]", "group": "inactive"}
{"compound": "NC(=O)/C(=N\\NC(=O)c1cc2ccccc2cc1O)C1C(=O)N(c2ccccc2)N=C1N (configuration not stated)", "group": "inactive"}
{"compound": "CC(C)(C)OC(=O)N1C(C2=COc3ccccc3O2)=COc2ccccc21", "group": "inactive"}
{"compound": "Cc1ccc(S(=O)(=O)N/N=C/c2oc(-c3ccncc3)c(-c3ccncc3)c2[N+](=O)[O-])cc1", "group": "inactive"}
{"compound": "CC(=O)OC1CCC2(C)C(CCC3C2CCC2(C)C(c4ccc(=O)oc4)C(OC(C)=O)CC32O)C1 (configuration not stated)", "group": "active"}
{"compound": "CC(C)C(Cl)CC/C(CBr)=C(\\Cl)CCl (configuration not stated)", "group": "inactive"}
{"compound": "CC(=O)OCC1=C(C(=O)O)N2C(=O)C(NC(=O)CSc3ccncc3)C2SC1 (configuration not stated)", "group": "inactive"}
{"compound": "CCOC(=O)N(Cc1cccs1)c1cc(OC)c(OC)c(OC)c1", "group": "inactive"}
{"compound": "O=C1C(=O)C(Br)(Br)C(Br)=C1Br", "group": "inactive"}
{"compound": "COC(=O)CCC(NC(=S)N/N=C(\\C)c1ccccn1)C(=O)OC (configuration not stated)", "group": "inactive"}
{"compound": "Nn1c(CCCCCCCCc2nnc(COc3ccc(Cl)cc3Cl)n2N)nnc1COc1ccc(Cl)cc1Cl", "group": "inactive"}
{"compound": "CC1CC(=O)N(N(C)C)C(C#N)(C#N)C1(C#N)C#N (configuration not stated)", "group": "inactive"}
{"compound": "COc1ccc(C2=CN3CCC[C@H]3C=C2c2cc(O)c(OC)c(OC)c2)cc1OC", "group": "active"}
{"compound": "N=C(N)SCc1ccc(Cl)c2ccccc12.O=[N+]([O-])c1c(O)c(Cl)cc(Cl)c1Cl", "group": "inactive"}
